The reported numbers originate from ChEMBL document CHEMBL3098020.

MEASURED ON: UniProtKB P30542
Sequence (P30542 whole entry): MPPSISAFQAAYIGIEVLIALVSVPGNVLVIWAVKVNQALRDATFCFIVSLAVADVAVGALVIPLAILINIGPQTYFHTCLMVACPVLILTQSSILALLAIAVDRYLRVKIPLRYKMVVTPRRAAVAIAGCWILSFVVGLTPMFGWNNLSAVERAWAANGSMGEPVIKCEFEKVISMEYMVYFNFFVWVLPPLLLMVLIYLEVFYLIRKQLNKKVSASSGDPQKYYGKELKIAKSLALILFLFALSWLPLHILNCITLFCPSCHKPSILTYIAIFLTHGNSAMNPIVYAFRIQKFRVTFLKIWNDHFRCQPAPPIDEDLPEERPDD
PROCEDURE DETAILS: Allosteric enhancement of human adenosine A1 receptor expressed in CHO cells assessed as inhibition of forskolin-stimulated cAMP production at 100 nM preincubated for 10 mins followed by forskolin challenge measured after 5 mins by scintillation counting analysis in presence of CCPA relative to control
Format: functional, cell-based
Below is a list of entries, each paired with its recorded inhibition value.
Entry rule: numbers only, all in %.

# count of solved cases: 4
>  <COMPOUND STRUCTURE>
COc1ccc(-c2sc(N)c(C(=O)c3cccc(Cl)c3)c2CC(C)(C)C)cc1

>  <inhibition (%)>
56

$$$$
>  <COMPOUND STRUCTURE>
Cc1ccccc1-c1sc(N)c(C(=O)c2ccc(Cl)cc2)c1CC(C)(C)C

>  <inhibition (%)>
49

$$$$
>  <COMPOUND STRUCTURE>
COCCOc1ccc(-c2sc(N)c(C(=O)c3ccc(Cl)cc3)c2CC(C)(C)C)cc1

>  <inhibition (%)>
55

$$$$
>  <COMPOUND STRUCTURE>
Cc1noc(C)c1-c1sc(N)c(C(=O)c2ccc(Cl)cc2)c1CC(C)(C)C

>  <inhibition (%)>
19

$$$$

Now for a further compound.
Exercise: What reported inhibition corresponds to CC(C)(C)Cc1c(-c2ccccc2)sc(N)c1C(=O)c1ccccc1Cl on UniProtKB P30542?
Solution: 41

---

MEASURED ON: Adenosine receptor A3 (Homo sapiens) (UniProt P0DMS8)
Sequence (whole entry): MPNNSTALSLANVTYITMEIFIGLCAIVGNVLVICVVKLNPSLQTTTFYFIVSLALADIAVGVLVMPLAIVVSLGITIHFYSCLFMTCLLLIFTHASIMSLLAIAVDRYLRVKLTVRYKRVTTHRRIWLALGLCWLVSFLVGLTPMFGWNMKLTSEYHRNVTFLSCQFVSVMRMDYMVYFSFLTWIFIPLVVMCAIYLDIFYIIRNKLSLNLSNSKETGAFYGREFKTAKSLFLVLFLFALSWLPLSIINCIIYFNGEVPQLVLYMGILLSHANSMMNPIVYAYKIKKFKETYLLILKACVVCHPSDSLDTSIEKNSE
PROCEDURE DETAILS: Displacement of [3H]-MRE-3008-F20 from human adenosine A3 receptor expressed in CHO cell membranes at 10 uM by scintillation counting analysis relative to control
inhibition reference
Write the number in % without appending the unit.

>  <COMPOUND STRUCTURE>
CC(C)(C)Cc1c(-c2ccccc2)sc(N)c1C(=O)c1ccccc1Cl

>  <UNIT LABEL>
%

>  <EXPERIMENTAL VALUE>
1

$$$$
>  <COMPOUND STRUCTURE>
CC(C)(C)Cc1c(-c2ccc(OC(F)(F)F)cc2)sc(N)c1C(=O)c1ccc(Cl)cc1

>  <UNIT LABEL>
%

>  <EXPERIMENTAL VALUE>
1

$$$$
>  <COMPOUND STRUCTURE>
Nc1sc(-c2ccccc2)c(-c2ccccc2)c1C(=O)c1ccc(Cl)cc1

>  <UNIT LABEL>
%

>  <EXPERIMENTAL VALUE>
1

$$$$
>  <COMPOUND STRUCTURE>
CC(C)(C)Cc1c(-c2ccccc2)sc(N)c1C(=O)c1ccc(Cl)cc1Cl

>  <UNIT LABEL>
%

>  <EXPERIMENTAL VALUE>
1

$$$$
>  <COMPOUND STRUCTURE>
CC(C)(C)Cc1c(-c2ccccc2)sc(N)c1C(=O)c1ccc(Cl)cc1

>  <UNIT LABEL>
%

>  <EXPERIMENTAL VALUE>
1

$$$$
>  <COMPOUND STRUCTURE>
CC(C)(C)Cc1c(-c2ccncc2)sc(N)c1C(=O)c1ccc(Cl)cc1

>  <UNIT LABEL>
%

>  <EXPERIMENTAL VALUE>
6

$$$$

Please find the next compound below.
Exercise: Query: inhibition; subject: COc1cccc(-c2sc(N)c(C(=O)c3ccc(Cl)cc3)c2CC(C)(C)C)c1
Solution: 1
